Recorded values, source patent US11447505B1.

study target: MRCKα (Homo sapiens (Human))
Sequence (Q5VT25 whole entry): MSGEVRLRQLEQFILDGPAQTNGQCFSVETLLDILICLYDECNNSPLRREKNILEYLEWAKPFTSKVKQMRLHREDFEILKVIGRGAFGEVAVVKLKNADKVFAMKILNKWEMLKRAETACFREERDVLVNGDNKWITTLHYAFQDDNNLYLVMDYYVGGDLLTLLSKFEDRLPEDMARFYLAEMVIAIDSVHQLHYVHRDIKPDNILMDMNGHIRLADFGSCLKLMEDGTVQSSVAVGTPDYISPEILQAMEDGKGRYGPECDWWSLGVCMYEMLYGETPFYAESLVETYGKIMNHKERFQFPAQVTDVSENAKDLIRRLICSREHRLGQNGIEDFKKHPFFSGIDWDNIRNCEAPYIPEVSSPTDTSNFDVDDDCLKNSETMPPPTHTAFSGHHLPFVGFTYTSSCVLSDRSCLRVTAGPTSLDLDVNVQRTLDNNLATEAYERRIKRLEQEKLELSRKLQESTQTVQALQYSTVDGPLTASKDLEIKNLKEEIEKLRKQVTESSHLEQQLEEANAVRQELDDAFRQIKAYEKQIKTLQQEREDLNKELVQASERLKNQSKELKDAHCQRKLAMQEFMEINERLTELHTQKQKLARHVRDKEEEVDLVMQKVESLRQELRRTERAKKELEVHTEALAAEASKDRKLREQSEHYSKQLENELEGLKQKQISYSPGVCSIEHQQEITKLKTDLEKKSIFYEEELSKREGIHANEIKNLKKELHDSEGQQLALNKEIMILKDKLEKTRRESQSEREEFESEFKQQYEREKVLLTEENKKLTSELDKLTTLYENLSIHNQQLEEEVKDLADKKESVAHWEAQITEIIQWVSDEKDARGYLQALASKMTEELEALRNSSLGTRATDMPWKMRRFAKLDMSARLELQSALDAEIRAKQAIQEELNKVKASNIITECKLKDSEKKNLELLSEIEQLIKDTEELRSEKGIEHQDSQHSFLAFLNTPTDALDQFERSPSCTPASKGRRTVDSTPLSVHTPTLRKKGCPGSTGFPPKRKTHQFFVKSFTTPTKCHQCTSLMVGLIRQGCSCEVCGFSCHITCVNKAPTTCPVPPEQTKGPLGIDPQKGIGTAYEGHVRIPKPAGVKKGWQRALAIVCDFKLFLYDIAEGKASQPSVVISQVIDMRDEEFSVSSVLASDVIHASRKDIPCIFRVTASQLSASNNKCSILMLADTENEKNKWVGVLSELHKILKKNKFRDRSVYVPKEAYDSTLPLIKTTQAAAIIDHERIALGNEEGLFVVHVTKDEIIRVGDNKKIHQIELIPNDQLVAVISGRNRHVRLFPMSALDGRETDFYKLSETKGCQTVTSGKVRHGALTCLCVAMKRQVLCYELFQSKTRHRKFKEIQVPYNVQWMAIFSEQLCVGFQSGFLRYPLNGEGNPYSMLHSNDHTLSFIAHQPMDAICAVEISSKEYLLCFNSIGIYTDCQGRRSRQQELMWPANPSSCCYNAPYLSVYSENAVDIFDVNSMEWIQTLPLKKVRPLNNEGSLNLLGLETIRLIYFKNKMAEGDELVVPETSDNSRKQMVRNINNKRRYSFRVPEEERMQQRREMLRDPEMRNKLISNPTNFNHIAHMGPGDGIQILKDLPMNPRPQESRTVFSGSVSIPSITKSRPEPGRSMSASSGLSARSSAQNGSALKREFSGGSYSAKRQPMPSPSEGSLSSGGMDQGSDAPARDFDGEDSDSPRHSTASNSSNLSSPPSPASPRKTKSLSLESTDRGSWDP
method summary: MRCKα kinase assay (IMAP fluorescence polarization)
Type: biochemical
reported conditions: 1 μM ATP; read-out: MRCK-a Average Ki
endpoint label: Ki (nM)
# output: bare number, implied unit nM

{"compound": "CC1(N)CCCN(c2ccnc3[nH]cc(-c4cncnc4)c23)C1 (stereo not drawn)", "study target": "MRCKα (Homo sapiens (Human))", "endpoint label": "Ki", "units": "nM", "reported": 0.517}

QUERY: Note down Ki recorded for `c1cc(-c2c[nH]c3nccc(N4CCC[C@]5(CCCCN5)C4)c23)ncn1`
RESULT: 2.89

QUERY: Note down Ki recorded for `CCN[C@H]1CCCN(c2ccnc3[nH]cc(-c4cncnc4)c23)C1`
RESULT: 1.23

QUERY: Note down Ki recorded for CNC1CCCN(c2ccnc3[nH]cc(-c4cncnc4)c23)CC1 (stereo not drawn)
RESULT: 0.382
